- experimental-protocol: soluble fraction after stress (log2 fold change); higher = more stays soluble; pooled small domains, quantitative proteomics
- assay-conditions: stress: 50 degC
readout: soluble fraction (log2)
Enter the number alone.

Some entries whose results are on file:
HMTEKMILKWKEALERMNDDFTTKDWLNVVIHEMGKSERTAYGWLSDMKRSGIIKDLGYGSWLKVLE	-0.738
HMATPTEHQLQAQARAVVEKAERLLDRASADDREDIINLIEKITDALAAEDFTAVKAPLAELSDILFYLE	-0.418
HMKYTEEIFNILSRGGFISANSVSSTVKRYYDALEEDFTEYYDYYKGIGFYLEAGNGYYLFTR	-3.29
HMEAELNSLVKTYENMKPKAAAQVFEELDMDVLLDVVERMKEKKLAPILAQVTPTRAKEITYELTQRR	0.0638
HMQTKSDMVYHRVREDIVNGVFAPGERLLISAVAKQYGVSEIPVREAFRVLSQEGFLKTRPNSGFVVS	0.0933
HMSKLSVSSLSSPEVQNQLKAAGIDVNSRQYQVVMKDMMGALDGRAGYTTVSAIKNRMRQYNADGDY	0.474

Can you share its soluble fraction (log2)? I mean this sequence: `HMGEAAIYRINILINNLNVRSGPGTLYPRLRRADFPGEYDIFEEKNGFGRISNTKSEWVSLNTQYVQRLT`
-0.549

Query (sequence): `HMRNLYEILGVSKDAPQGEIKSAYRKLAKTYHPDLNPNNEKAAELFKEINQAYEVLSDETKRRHYDQFGEA` ; field requested: soluble fraction (log2)
0.312

Can you look up the measured soluble fraction (log2) of `HMAQLPADMSRVKSADVSDAQLREFVQKAQASGQTETQLFREFSRRGMPTNEINILRSRMVGLQNN` for me?
0.0388

Tell me the measured soluble fraction (log2) of `HMDKKEFGKRLKNLRIRNKMSQQAMADSLGYTSRSTINKIEEGINEMSYDKIVRLMELYGLSRPDLGLEPI` , please.
-0.154

Quick one: soluble fraction (log2) of `HMDDSSLFGRHTGIGFIVDDIDSGYQTLLAKGVSFEMPPTEQPWGGILALMKDPDGNIFYLD` ?
-0.0639

Reported soluble fraction (log2), sequence `HMIELEGVISSVLAGTMFKVKLRGNGHEVLAHISGKMRKKFIRLVIGDAVKIEMSPYDMDKARIVYRI` : ____
-0.00875
